Target: FGF2 (Homo sapiens, UniProt P09038 P09038:135-288)
Sequence (P09038 135-288, one chain of several): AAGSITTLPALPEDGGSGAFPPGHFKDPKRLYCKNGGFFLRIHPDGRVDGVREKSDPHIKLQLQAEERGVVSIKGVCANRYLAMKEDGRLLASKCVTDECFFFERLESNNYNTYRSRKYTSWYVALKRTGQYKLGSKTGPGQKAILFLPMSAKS
Experiment: cell_activity; HUVEC proliferation
Conditions: tags: Peprotech
Procedure: Human umbilical vein endothelial cells (HUVEC) were seeded in a 96 well flat bottom plate at 5×10³ cells per well, and cultured overnight using a medium EGM-2 Bullet Kit for endothelial cells (CC-3162 manufactured by Lonza) containing 2% fetal bovine serum and growth factors. […] For the measurement of absorbance, a microplate reader (450 nm) was used. One sample was measured at n=3. […]
pIC50: −log10 of the molar value.

binder: GGGAUACUAGGGCCUUAAGGUUACCAGUGUAGUCCC (ssRNA, 2'-F at U8,U16,U21,U28,U30; 2'-OH at G12,G27,G29; all others 2'-OMe) [aptamer ID 11]
pIC50: 7.89
--
binder: CGGAUACUAGGGCAUUAAUGUUACCAGUGUAGUCCG (ssRNA, 2'-F at U8,U16,U21,U28,U30; 2'-OH at G12,G27,G29; all others 2'-OMe; 5' NH2; 3' idT) [aptamer ID 8]
pIC50: 8.25
--
binder: GGGAUACUAGGGCAUUAAUGUUACCAGUGUAGUCCC (ssRNA, 2'-F at U8,U16,U21,U28,U30; 2'-OH at G12,G27,G29; all others 2'-OMe; 3' idT) [aptamer ID 3(19)]
pIC50: 8.47
